tested on: Cavia porcellus; test: Inhibition of leukotriene D4 induced bronchoconstriction in anesthetized guinea pigs after intravenous administration at a dose of 10 mg/kg; format: functional
Label yes when inhibition in vivo at 10 mg/kg is at or above 30%; anything below gets no.

Below are worked cases with known answers.
| molecule | classAssignment |
| --- | --- |
| CCCc1c(OCc2ccccc2CCOc2cc3c(cc2C(C)=O)CCC(C(=O)O)O3)ccc(C(C)=O)c1O (stereo unspecified) | no |
| CCCc1c(OCCCOc2cc3c(cc2C(C)=O)CCC(C(=O)O)O3)ccc(C(C)=O)c1O (stereo unspecified) | yes |
| CCCc1c(OCCCCCCOc2cc3c(cc2C(C)=O)CCC(C(=O)O)O3)ccc(C(C)=O)c1O (stereo unspecified) | yes |

Query block: Reported inhibition in vivo at 10 mg/kg at or above 30%? CCCc1c(OCCCCCOc2cc3c(cc2C(C)=O)CCC(C(=O)O)O3)ccc(C(C)=O)c1O (stereo unspecified)
Result block: yes

Query block: Now this one: CCCc1c(OCCCCCOc2cc3c(cc2C(C)=O)CCC(C(=O)NS(=O)(=O)c2ccccc2)O3)ccc(C(C)=O)c1O (stereo unspecified)
Result block: no

Query block: Now this one: CCCc1c(OCc2cccc(COc3cc4c(cc3C(C)=O)CCC(C(=O)O)O4)c2)ccc(C(C)=O)c1O (stereo unspecified)
Result block: no

Query block: Now this one: CC(=O)c1ccc(OCCCCCOc2cc3c(cc2C(C)=O)CCC(C(=O)O)O3)cc1O (stereo unspecified)
Result block: yes

Query block: Now this one: CCCc1c(OCCCOc2cc(NC(=O)c3nn[nH]n3)c(C)cc2Cl)ccc(C(C)=O)c1O
Result block: yes

Query block: Now this one: CCCc1c(OCCCCCOc2cc3c(cc2C(=O)CC)CCC(C(=O)O)O3)ccc(C(C)=O)c1O (stereo unspecified)
Result block: no

Query block: Now this one: CCCc1c(OCCCCCOc2cc3c(cc2Cl)CCC(C(=O)O)O3)ccc(C(C)=O)c1O (stereo unspecified)
Result block: no

Query block: Now this one: CCCc1c(OCCCCCOc2cc3c(cc2C(C)=O)CCC2(CCC(C(=O)O)CC2)O3)ccc(C(C)=O)c1O (stereo unspecified)
Result block: yes
